Assign binding signal (PBM E-score (-0.5 to 0.5)) to each entry below.
system-tested: Pdr3 (Saccharomyces cerevisiae) (UniProt P33200)
Sequence: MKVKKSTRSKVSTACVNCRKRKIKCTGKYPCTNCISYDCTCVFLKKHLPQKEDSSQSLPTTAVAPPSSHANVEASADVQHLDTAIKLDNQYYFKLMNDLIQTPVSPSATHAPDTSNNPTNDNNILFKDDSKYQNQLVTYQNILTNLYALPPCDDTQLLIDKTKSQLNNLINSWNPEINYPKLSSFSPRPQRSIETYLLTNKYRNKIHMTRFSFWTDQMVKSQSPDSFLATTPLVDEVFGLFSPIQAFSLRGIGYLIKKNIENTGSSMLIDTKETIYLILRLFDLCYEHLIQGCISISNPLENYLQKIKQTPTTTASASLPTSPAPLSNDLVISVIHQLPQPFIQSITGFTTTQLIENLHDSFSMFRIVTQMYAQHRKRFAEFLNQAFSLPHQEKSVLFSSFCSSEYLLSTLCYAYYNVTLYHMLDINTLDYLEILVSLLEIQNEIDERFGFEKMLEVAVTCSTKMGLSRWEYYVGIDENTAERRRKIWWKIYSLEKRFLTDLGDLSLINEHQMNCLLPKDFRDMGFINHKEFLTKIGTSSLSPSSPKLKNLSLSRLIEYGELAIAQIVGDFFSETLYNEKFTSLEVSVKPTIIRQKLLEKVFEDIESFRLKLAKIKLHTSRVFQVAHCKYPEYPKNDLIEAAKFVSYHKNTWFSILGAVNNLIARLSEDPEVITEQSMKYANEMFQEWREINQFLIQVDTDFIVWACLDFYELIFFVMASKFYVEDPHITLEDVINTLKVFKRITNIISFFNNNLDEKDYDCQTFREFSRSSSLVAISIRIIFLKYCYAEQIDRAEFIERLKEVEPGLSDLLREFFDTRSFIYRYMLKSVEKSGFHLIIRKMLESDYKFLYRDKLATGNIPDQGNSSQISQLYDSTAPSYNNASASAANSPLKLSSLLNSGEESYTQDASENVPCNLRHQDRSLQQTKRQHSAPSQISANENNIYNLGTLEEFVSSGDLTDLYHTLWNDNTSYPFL
measurement-context: 200 nM
Answer using only a numeral; do not append any unit.

Asked: For the sequence shown here, CCCGCGGG (double strand) [8-mer CCCGCGGG] , give the reported binding signal (PBM E-score (-0.5 to 0.5)).
Given back: 0.498

Asked: Now the same for CCGCGGAC (double strand) [8-mer CCGCGGAC]
Given back: 0.495

Asked: Now the same for ATCCGCGG (double strand) [8-mer ATCCGCGG]
Given back: 0.496

Asked: Now the same for CCGCGGCA (double strand) [8-mer CCGCGGCA]
Given back: 0.49

Asked: Now the same for AACGGAAC (double strand) [8-mer AACGGAAC]
Given back: 0.49

Asked: Now the same for ACCCGCGG (double strand) [8-mer ACCCGCGG]
Given back: 0.497

Asked: Now the same for CCCCGCGG (double strand) [8-mer CCCCGCGG]
Given back: 0.492

Asked: Now the same for CCGCGGAG (double strand) [8-mer CCGCGGAG]
Given back: 0.498

---

Assign binding signal (PBM E-score (-0.5 to 0.5)) to each entry below.
system-tested: Vhr2 (Saccharomyces cerevisiae) (UniProt P40041)
Sequence: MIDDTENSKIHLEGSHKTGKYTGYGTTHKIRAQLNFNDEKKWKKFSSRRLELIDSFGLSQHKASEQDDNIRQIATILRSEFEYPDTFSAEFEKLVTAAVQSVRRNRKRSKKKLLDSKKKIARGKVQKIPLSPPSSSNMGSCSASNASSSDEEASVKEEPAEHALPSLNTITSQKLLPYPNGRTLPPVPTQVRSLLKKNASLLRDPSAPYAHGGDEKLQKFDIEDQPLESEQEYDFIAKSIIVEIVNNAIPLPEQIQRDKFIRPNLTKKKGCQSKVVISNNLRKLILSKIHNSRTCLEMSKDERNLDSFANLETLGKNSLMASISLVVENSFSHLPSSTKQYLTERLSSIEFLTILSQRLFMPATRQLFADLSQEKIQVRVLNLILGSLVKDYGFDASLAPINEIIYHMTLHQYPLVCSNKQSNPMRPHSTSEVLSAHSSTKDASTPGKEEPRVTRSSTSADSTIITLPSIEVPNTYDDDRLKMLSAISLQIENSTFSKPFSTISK
measurement-context: 200 nM

Asked: For the sequence shown here, ATGACTCA (double strand) [8-mer ATGACTCA] , give the reported binding signal (PBM E-score (-0.5 to 0.5)).
Given back: 0.499

Asked: Now the same for GTGAGTCA (double strand) [8-mer GTGAGTCA]
Given back: 0.498

Asked: Now the same for ATGACTAC (double strand) [8-mer ATGACTAC]
Given back: 0.494

Asked: Now the same for GAGTCATA (double strand) [8-mer GAGTCATA]
Given back: 0.495

Asked: Now the same for GATGACTA (double strand) [8-mer GATGACTA]
Given back: 0.495

Asked: Now the same for GAGTCATC (double strand) [8-mer GAGTCATC]
Given back: 0.497

Asked: Now the same for GTGACTCA (double strand) [8-mer GTGACTCA]
Given back: 0.498

Asked: Now the same for CTGACTCA (double strand) [8-mer CTGACTCA]
Given back: 0.494
